Taken from ChEMBL document CHEMBL4325899.

I'd appreciate it if you could supply selectivity ratio values for the items below.
Experiment: Selectivity index, ratio of EC50 for human MCF10A cells under UV irradiation at 1.5 J/cm2 to EC50 for human A375 cells under UV irradiation at 1.5 J/cm2
Type: toxicity
Conditions: MCF10A cells versus A375 cells, read-out: Ratio EC50

Cc1nc2oc(-c3ccccc3)nc2c2[nH]c(=O)ccc12 has a reported selectivity ratio of 34

Lab note: measured selectivity ratio of COc1ccc(-c2ccc3c(C)nc4c(nnn4-c4ccccc4)c3n2)cc1 was 0.009

Notebook: COc1ccc(-c2nc3c(nc(C)c4ccc(-c5ccccc5)nc43)o2)cc1 , selectivity ratio read as 79

# selectivity ratio (molecule: COc1ccccc1-c1ccc2c(C)nc3oc(-c4ccccc4)nc3c2n1 ) is 2

// sample COc1ccc(-n2nnc3c4nc(-c5ccccc5OC)ccc4c(C)nc32)cc1 , its selectivity ratio was 46

selectivity ratio in this record for COc1ccccc1-c1ccc2c(C)nc3oc(-c4cc(OC)c(OC)c(OC)c4)nc3c2n1 : 2

COc1cc(-c2nc3c(nc(C)c4ccc(-c5ccccc5)nc43)o2)cc(OC)c1OC yielded selectivity ratio of 3

// sample COc1ccc(-c2ccc3c(C)nc4c(nnn4-c4ccc(OC)cc4)c3n2)cc1 , its selectivity ratio was 57
